Data provenance: PubChem BioAssay

assay: small-molecule microarray binders of probe aShh, primary screen, biochemical, biotinylated probe, 635/667 nm fluorescence (AID 1114); conditions: higher = more signal;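 note: probe is biotin-labelled aShh protein from a stem cell growth factor screen; measures binding of labelled protein to compounds printed on the slide; score merges feature fluorescence at 667 nm with signal-to-noise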
recorded-endpoint: composite z-score

Can you look up the measured composite z-score of "C=C(/C(=C/C[C@@H](OC(=O)c1ccncc1)c1ccc(CO)o1)c1cnc2ccccc2c1)C(C)C" for me?
-0.0626

So what does the record say about composite z-score for "NC(=O)NCC#Cc1ccc2c(c1)[C@]1(C(=O)N2)[C@H](c2ccccc2OCCO)N2[C@H](c3ccccc3)[C@H](c3ccccc3)OC(=O)[C@H]2[C@@H]1C(=O)N1CCN(c2ncccn2)CC1" ?
0.399

Sample "COCCOC(=O)N1C(=O)[C@@]2(c3cc(C#CCNC(N)=O)ccc31)[C@H](c1ccc(OCCO)cc1)N1[C@H](c3ccccc3)[C@H](c3ccccc3)OC(=O)[C@H]1[C@@H]2C(=O)N1CCCCCCC1" — what was its composite z-score?
0.485

// returns reported composite z-score for input "CC(C)[Si](OCC[C@H]1O[C@]2(C(=O)N(Cc3ccccc3)c3ccccc32)[C@@H](C)[C@@H]1[Si](C)(C)O)(C(C)C)C(C)C"
0.0204

Entry "CC(C)NC(=O)[C@@]1(Cc2ccccc2I)c2ccccc2C(=O)N(C2CCCCC2)[C@H]1c1ccc(CO)cc1" : reported composite z-score = ?
0.448

Request the reported composite z-score associated with "C=CC[C@@]12N=C(c3ccc(OCCCO)cc3)O[C@@H]1c1ccccc1CN(Cc1ccccc1)C2=O"
0.116

* * *

assay: MM1S cell viability effects, profiling panel, calcein-AM fluorescence, 48 h, basal (AID 1165); conditions: higher = more signal;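 note: viability of MM1S multiple myeloma cells under basal unstimulated conditions; test concentration not given here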
If the reported z-score equals or exceeds -0.9, assign Yes. If not, assign No.

API: above_or_equal(metric=z-score, cutoff=-0.9) for item "O=C1O[C@@H](c2ccccc2)[C@@H](c2ccccc2)N2[C@@H](c3ccc(O)cc3)[C@]3(C(=O)Nc4ccc(C#CC5(O)CCCCCC5)cc43)[C@@H](C(=O)Nc3nc4ccccc4s3)[C@H]12"
No

Test whether the compound "CO[C@H]1COC(=O)[C@H](C)NC(=O)CC=C[C@@H](C)[C@H](NS(=O)(=O)c2ccc(C)cc2)COC(=O)CC=C[C@@H]1C" records z-score of -0.9 or higher.
Yes

Determine whether measured z-score meets or exceeds -0.9 for "CO[C@H]1COC(=O)[C@H](C)COC(=O)[C@H](Cc2ccccc2)NC(=O)CC=C[C@H]1C"
Yes

State whether the measured z-score reaches -0.9, counting equality as reaching it, for "O=C(O)[C@@H]1Cc2c([nH]c3ccccc23)[C@@H](c2ccccc2)N1"
Yes

Could you tell me if the measured z-score of "O=C(NCc1ccccc1)[C@@]1(CCS(=O)(=O)c2ccccc2)COC(c2ccc(OCCCO)cc2)=N1" reaches -0.9 or more?
No

Hi, just wondering whether "C[N+](C)(C)CCCC[C@@H]1NC(=O)[C@H]2C[C@@H](C(=O)NCc3ccc(F)cc3)[C@@H](c3cccc(OCCO)c3)N2C1=O" shows z-score of -0.9 or higher.
No

Reported z-score reaches at least -0.9 for "CC(C)CNC(=O)[C@@]1(C)c2ccccc2C(=O)N(Cc2ccc(OC(F)(F)F)cc2)[C@H]1c1ccc(CO)cc1" ?
Yes

Confirm if z-score reported for the compound "COC(=O)[C@H]1[C@@H]2COc3ccccc3[C@H]2N[C@H]1C(=O)OC" is -0.9 or above.
No

Given the entry "C=CC[C@]1(C(=O)O)N=C(c2ccc(OCCCO)cc2)O[C@H]1c1ccccc1" , answer whether its z-score meets or surpasses -0.9.
Yes

Determine whether this compound has z-score no lower than -0.9: "O=C1O[C@H](c2ccccc2)[C@H](c2ccccc2)N2[C@H]1[C@@H](C(=O)NC[C@H](O)c1ccccc1)[C@]1(C(=O)Nc3ccc(C#CC4=CCCCC4)cc31)[C@H]2c1ccc(OCCO)cc1"
No

Please indicate if the recorded z-score for "NC(=O)[C@H]1[C@@H]2C(=O)O[C@@H](c3ccccc3)[C@@H](c3ccccc3)N2[C@@H](c2ccc(O)cc2)[C@]12C(=O)Nc1ccc(C#CCCO)cc12" meets or exceeds -0.9.
Yes

Is reported z-score greater than or equal to -0.9 here: "C=CC[C@]1(C(=O)N2CCCCC2)N=C(c2ccc(OCCCO)cc2)O[C@H]1c1ccccc1N=[N+]=[N-]"
No

# bool: z-score of "COCCOC(=O)N1C(=O)[C@@]2(c3cc(C#CCCO)ccc31)[C@H](c1ccc(OCCO)cc1)N1[C@H](c3ccccc3)[C@H](c3ccccc3)OC(=O)[C@H]1[C@@H]2C(=O)NC[C@H](O)c1ccccc1" >= -0.9
Yes

Dear colleague, could you confirm whether C=CCC(OC(C)=O)[C@@H]1[C@@H](N(Cc2ccc(-c3ccccc3)cc2)C(=O)c2ccc(-c3ccccc3)cc2)c2cc(OCCCO)ccc2N1C(=O)Cc1ccc(OC)cc1 (stereo partly drawn) has z-score at or above -0.9?
Yes

Please check the record "CCCC/C=C/[C@H]([C@@H](O)Cc1ccccc1)N(CC#Cc1ccccc1)Cc1ccccc1Br" and state if its z-score is at or above -0.9.
Yes

Does "C=C(CCCC)C(=O)CC[C@@H](OC(=O)c1cccnc1)c1cccc(OCCO)c1" have a reported z-score of at least -0.9?
No

Item CC(C)N1CC=CC23O[C@@H]4/C=C\CCCOC(=O)C4[C@H]2C(=O)N(CCCCCO)[C@@H]3C1=O (stereo partly drawn) with z-score of -0.9 or above?
Yes

Is the recorded value of z-score equal to or greater than -0.9 for this compound? "CC(C)(C)OC(=O)CC[C@]1(C(=O)NCCN2CCOCC2)N=C(c2ccc(OCCCO)cc2)O[C@H]1c1ccccc1CN=[N+]=[N-]"
Yes

Say whether "COc1ccc(-c2ccccc2[C@@H]2N[C@H](C(=O)O)CC[C@H]2C)cc1" shows z-score of -0.9 or more.
Yes

Confirm if z-score reported for the compound CC(C)C[C@@H]1NC(=O)[C@H](CC(C)C)NC(=O)[C@@]23C(=O)N[C@@H](Cc4ccccc4)C2[C@H](C)[C@@]2(C)O[C@H]2C3/C=C/CC/C=C/CNC1=O (stereo partly drawn) is -0.9 or above.
No

Identify whether the reported z-score of the following compound is -0.9 or greater: "C#CCCCON=C1C[C@@H](O)[C@@H](O)[C@@H]2[C@@H]3C(=O)N(Cc4ccc5c(c4)OCO5)C(=O)[C@@H]3CC[C@H]12"
Yes

Exam item: decide whether the reported z-score for "O=C(CS)NCCCCCNC(=O)[C@H]1C[C@H]2C(=O)N3CCC[C@H]3C(=O)N2[C@H]1c1ccc(O)cc1" is at least -0.9.
Yes

Given the entry "CCN1C(C)=C(C(=O)OC)[C@@H](c2ccccc2)N2C(=O)[C@@]3(C(=O)OC)O[C@@]12[C@@H]1C(=O)CCC[C@@H]13" , answer whether its z-score meets or surpasses -0.9.
Yes

Given "C=C(C(=O)CC[C@H](OC(=O)c1ccccc1-c1ccccc1C(=O)O)c1ccc(CO)o1)C(C)C" , state whether its z-score is at least -0.9.
Yes

Quick check, z-score >= -0.9? "O=C(NCc1ccccc1)[C@@]1(Cc2ccccc2)COC(c2ccc(OCCCO)cc2)=N1"
No

Confirm if z-score reported for the compound "CCC(=O)[C@]12O[C@@]3([C@@H]4C(=O)OCC[C@@H]41)N(CC)C(C)=C(C(=O)OC)[C@@H](c1ccccc1)N3C2=O" is -0.9 or above.
Yes

* * *

assay: small-molecule microarray binders of probe aEGFR, primary screen, biochemical, biotinylated probe, 635/667 nm fluorescence (AID 1097); conditions: higher = more signal;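 note: probe is a biotinylated anti-EGFR antibody binding compounds printed on slides; score combines fluorescence near 667 nm and signal to noise of each spot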
Could you please report measured composite z-score for the items listed next?

Data request, read-out composite z-score, for CC1CC/C=C\[C@H]2OC34C=CCN(Cn5nnc6ccccc65)C(=O)[C@H]3N(C(C)CO)C(=O)[C@@H]4C2C(=O)O1 (some centres undefined)
-0.19

Which composite z-score value is on record for CCC1=C2CN(Cc3ccccc3Br)[C@@H]([C@@H](O)Cc3ccccc3)C2C=CCC1 (some centres undefined) ?
-0.0981

GET /values?readout=composite z-score&item= "COC(=O)[C@@]1(Cc2ccccc2)[C@H]2c3cc(C(=O)N4CCCC4)n(CCN4CNCC4=O)c3C[C@H]2CN1C(=O)c1ccccc1"
-0.013

Fill in: composite z-score of "O=C1c2ccccc2[C@@]2(Cc3ccccc3N(CC(F)(F)F)C2=O)[C@H](c2ccc(CO)cc2)N1C1CCCCC1" is ___
0.0376

Requested field: composite z-score. Item: "COCC(=C=CC[C@H](O)c1ccc(OCCO)cc1)C[C@H](O)c1ccccn1"
-0.235

Bench note: what composite z-score did C[C@H]1NC(=O)[C@@H](C)NC(=O)[C@@]23C(=O)N[C@@H](Cc4ccccc4)C2[C@H](C)[C@@]2(C)O[C@H]2C3/C=C/C/C=C\CNC1=O (some centres undefined) show?
-0.131

What value of composite z-score has been reported for the following molecule? "[N-]=[N+]=NCc1ccccc1C[C@@]1(C(=O)N2CCOCC2)N=C(c2ccc(OCCCO)cc2)O[C@@H]1c1ccccc1N=[N+]=[N-]"
0.318

Please give the measured composite z-score for this molecule: "O=C1c2ccccc2[C@](Cc2ccccc2I)(C(=O)NCc2ccccc2)[C@H](c2ccc(CO)cc2)N1Cc1ccccc1C(F)(F)F"
-0.179

Which composite z-score value belongs to "CCCCCCc1nc(-c2cc(C)c(OC)c(C)c2)cc2c1[Si](C(C)C)(C(C)C)O[C@H]2c1ccccc1" ?
-0.168

What value of measured composite z-score is listed for "O=C(NCc1ccccc1)[C@@]1(Cc2ccccc2)COC(c2ccc(OCCCO)cc2)=N1" ?
-0.054

What does the record list as composite z-score for "C=CCNC(=O)[C@H]1[C@@H]2C(=O)O[C@@H](c3ccccc3)[C@@H](c3ccccc3)N2[C@@H](c2ccccc2OCCO)[C@]12C(=O)N(C(=O)OCCOC)c1ccc(C#CCC(C(=O)OC)C(=O)OC)cc12" ?
0.0343

Give its composite z-score value. Item: "C#CCCCON=C1C[C@@H](O)[C@@H](O)[C@@H]2[C@@H]3C(=O)N(Cc4ccc5c(c4)OCO5)C(=O)[C@@H]3CC[C@H]12"
-0.02

Would you mind telling me what composite z-score value was observed for "CCOC(=O)[C@H]1C/C=C/C[C@H](C(=O)OCC)C(=O)O[C@H]2[C@@H](OC)O[C@H](CO)[C@@H](OC(=O)Nc3ccc(Br)cc3)[C@@H]2OC1=O" ?
-0.121

Item under review: "CC1=C([C@H](O)CCc2ccccc2)[C@H](CO)[C@@H]2C(=O)N(Cc3ccccc3)C(=O)[C@@H]2C1" . Reported composite z-score?
-0.085
